# assay notes: Spontaneous Glutathione (GSH) Addition Assay
# Set-up: key: Samples for which the mass of a covalent adduct was clearly detected (M+307) are indicated as FLAG (positive); Compounds for which no adduct was detected are designated NO FLAG (negative)
# settings: 10 μM test substance, 5 mM GSH, pH 7.4 phosphate buffer, 24 hours, room temperature; adduct by MS

compound: COCCN1C(=O)N(c2ncc(C#Cc3ccccc3)cn2)[C@@H]2CCC[C@@H]21 [Example 5]
GSH assay: NO FLAG
--
compound: COCCCN1C(=O)N(c2ncc(C#Cc3cccc(F)c3)cn2)[C@@H]2CCC[C@@H]21 [Example 10]
GSH assay: NO FLAG
--
compound: COCCN1C(=O)N(c2ncc(C#Cc3cc(F)ccc3F)cn2)[C@@H]2CCC[C@@H]21 [Example 8]
GSH assay: NO FLAG
--
compound: COCCCN1C(=O)N(c2ncc(C#Cc3ccccc3)cn2)[C@@H]2CCC[C@@H]21 [Example 9]
GSH assay: NO FLAG
--
compound: CN1C(=O)N(c2ccc(C#Cc3cccc(F)c3)nn2)[C@@H]2CCC[C@@H]21 (racemic) [Ref. 1 Ex. 174, reference compound]
GSH assay: FLAG
--
compound: CN1C(=O)N(c2ccc(C#Cc3ccccc3)nn2)[C@@H]2CCC[C@@H]21 [Ref. 1 Ex. 170, reference compound]
GSH assay: FLAG
--
compound: CCN1C(=O)N(c2ncc(C#Cc3ccc(F)cc3)cn2)[C@@H]2CCC[C@@H]21 [Example 3]
GSH assay: NO FLAG
--
compound: COCCN1C(=O)N(c2ncc(C#Cc3ccc(F)cc3)cn2)[C@@H]2CCC[C@@H]21 [Example 7]
GSH assay: NO FLAG
--
compound: CCN1C(=O)N(c2ncc(C#Cc3ccccc3)cn2)[C@@H]2CCC[C@@H]21 [Example 1]
GSH assay: NO FLAG
--
compound: CCN1C(=O)N(c2ncc(C#Cc3cc(F)ccc3F)cn2)[C@@H]2CCC[C@@H]21 [Example 4]
GSH assay: NO FLAG
--
compound: COCCN1C(=O)N(c2ncc(C#Cc3cccc(F)c3)cn2)[C@@H]2CCC[C@@H]21 [Example 6]
GSH assay: NO FLAG
--
compound: COCCCN1C(=O)N(c2ncc(C#Cc3ccc(F)cc3)cn2)[C@@H]2CCC[C@@H]21 [Example 11]
GSH assay: NO FLAG
--
compound: CCN1C(=O)N(c2ncc(C#Cc3cccc(F)c3)cn2)[C@@H]2CCC[C@@H]21 [Example 2]
GSH assay: NO FLAG

----------
# assay notes: Solubility by 24 h equilibration in phosphate buffer, manual conventional HPLC (reference compound 106)
# Type: physicochemical
# settings: aqueous buffer, thermodynamic from solid, equilibrated 24 h in 0.05 M phosphate buffer pH 6.5
# Experimental: In the case of reference compound 106, the compound was equilibrated for 24 h in 0.05 M phosphate buffer (pH 6.5) using a procedure identical to that performed with the LYSA assay. The amount of solute present was then directly determined using manual conventional HPLC analytics.

molecule: CN1C(=O)N(c2ccc(C#Cc3ccccc3)cn2)[C@@H]2CCC[C@@H]21 [Ref. 1 Ex. 106, reference compound]
units symbol: µg/mL
solubility at 24 h: 0.011

----------
# system tested: human mGlu5a receptor (Homo sapiens, UniProt P41594)
# Construct: expressed in transfected cells; host or cells: HEK-293 (monoclonal, stably transfected)
# Sequence (P41594 21-1180 isoform P41594-2 limits assumed): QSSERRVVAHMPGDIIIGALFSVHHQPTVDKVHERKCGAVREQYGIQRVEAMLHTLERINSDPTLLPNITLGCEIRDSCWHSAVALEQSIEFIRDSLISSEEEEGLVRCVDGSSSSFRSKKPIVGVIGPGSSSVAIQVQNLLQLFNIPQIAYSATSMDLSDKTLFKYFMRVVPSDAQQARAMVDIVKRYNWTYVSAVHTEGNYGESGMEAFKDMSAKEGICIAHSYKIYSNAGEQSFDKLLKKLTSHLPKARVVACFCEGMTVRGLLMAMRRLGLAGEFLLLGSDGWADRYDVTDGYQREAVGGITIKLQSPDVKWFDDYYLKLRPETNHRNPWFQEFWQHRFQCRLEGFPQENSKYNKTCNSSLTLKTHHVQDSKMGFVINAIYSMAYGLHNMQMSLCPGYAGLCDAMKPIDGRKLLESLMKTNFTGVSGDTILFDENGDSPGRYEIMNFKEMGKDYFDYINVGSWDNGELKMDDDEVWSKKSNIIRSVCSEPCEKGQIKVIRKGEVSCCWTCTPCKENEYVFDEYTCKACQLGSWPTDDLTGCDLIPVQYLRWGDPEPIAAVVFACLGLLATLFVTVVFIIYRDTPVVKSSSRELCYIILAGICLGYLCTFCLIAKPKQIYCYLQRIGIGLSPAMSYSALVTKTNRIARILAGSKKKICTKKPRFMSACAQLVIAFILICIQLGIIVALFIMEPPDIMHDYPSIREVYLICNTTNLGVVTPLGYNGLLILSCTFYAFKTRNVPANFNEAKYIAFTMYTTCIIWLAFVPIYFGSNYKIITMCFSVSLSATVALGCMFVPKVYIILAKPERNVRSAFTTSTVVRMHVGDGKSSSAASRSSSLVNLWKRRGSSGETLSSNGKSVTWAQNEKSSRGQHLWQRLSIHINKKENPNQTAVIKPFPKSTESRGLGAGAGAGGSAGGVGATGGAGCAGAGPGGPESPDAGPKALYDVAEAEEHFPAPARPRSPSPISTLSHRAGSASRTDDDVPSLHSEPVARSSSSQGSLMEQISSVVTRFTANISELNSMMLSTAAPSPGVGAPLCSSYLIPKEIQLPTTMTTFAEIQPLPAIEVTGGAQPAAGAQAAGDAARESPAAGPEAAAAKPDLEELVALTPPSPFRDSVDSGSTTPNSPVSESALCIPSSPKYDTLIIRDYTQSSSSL
# assay notes: Intracellular Ca2+ mobilization assay (mGlu5 PAM)
# Type: cell-based
# settings: HEK-293 cells expressing human mGlu5a; L-glutamate at EC20
Entries get a class label from measured EC50. See ranges: class A: < 10 nM; class B: ≥ 10 nM and < 20 nM; class C: ≥ 20 nM

molecule: COCCCN1C(=O)N(c2ncc(C#Cc3ccc(F)cc3)cn2)[C@@H]2CCC[C@@H]21
system tested: human mGlu5a receptor (Homo sapiens, UniProt P41594)
label: class C

molecule: COCCCN1C(=O)N(c2ncc(C#Cc3cccc(F)c3)cn2)[C@@H]2CCC[C@@H]21
system tested: human mGlu5a receptor (Homo sapiens, UniProt P41594)
label: class C

molecule: CN1C(=O)N(c2ccc(C#Cc3cccc(F)c3)nn2)[C@@H]2CCC[C@@H]21 (racemic) [Ref. 1 Ex. 174, reference compound]
system tested: human mGlu5a receptor (Homo sapiens, UniProt P41594)
label: class B

molecule: COCCN1C(=O)N(c2ncc(C#Cc3ccccc3)cn2)[C@@H]2CCC[C@@H]21
system tested: human mGlu5a receptor (Homo sapiens, UniProt P41594)
label: class B

molecule: COCCCN1C(=O)N(c2ncc(C#Cc3ccccc3)cn2)[C@@H]2CCC[C@@H]21
system tested: human mGlu5a receptor (Homo sapiens, UniProt P41594)
label: class C

molecule: CCN1C(=O)N(c2ncc(C#Cc3ccc(F)cc3)cn2)[C@@H]2CCC[C@@H]21
system tested: human mGlu5a receptor (Homo sapiens, UniProt P41594)
label: class B

molecule: CCN1C(=O)N(c2ncc(C#Cc3cccc(F)c3)cn2)[C@@H]2CCC[C@@H]21
system tested: human mGlu5a receptor (Homo sapiens, UniProt P41594)
label: class B

molecule: CN1C(=O)N(c2ccc(C#Cc3ccccc3)nn2)[C@@H]2CCC[C@@H]21 [Ref. 1 Ex. 170, reference compound]
system tested: human mGlu5a receptor (Homo sapiens, UniProt P41594)
label: class A

molecule: CN1C(=O)N(c2ccc(C#Cc3ccccc3)cn2)[C@@H]2CCC[C@@H]21 [Ref. 1 Ex. 106, reference compound]
system tested: human mGlu5a receptor (Homo sapiens, UniProt P41594)
label: class A

molecule: COCCN1C(=O)N(c2ncc(C#Cc3cc(F)ccc3F)cn2)[C@@H]2CCC[C@@H]21
system tested: human mGlu5a receptor (Homo sapiens, UniProt P41594)
label: class B

molecule: CCN1C(=O)N(c2ncc(C#Cc3ccccc3)cn2)[C@@H]2CCC[C@@H]21
system tested: human mGlu5a receptor (Homo sapiens, UniProt P41594)
label: class A

molecule: COCCN1C(=O)N(c2ncc(C#Cc3ccc(F)cc3)cn2)[C@@H]2CCC[C@@H]21
system tested: human mGlu5a receptor (Homo sapiens, UniProt P41594)
label: class C

molecule: COCCN1C(=O)N(c2ncc(C#Cc3cccc(F)c3)cn2)[C@@H]2CCC[C@@H]21
system tested: human mGlu5a receptor (Homo sapiens, UniProt P41594)
label: class C

----------
# assay notes: Lyophilisation Solubility Assay (LYSA)
# Assay type: physicochemical
# settings: aqueous buffer, thermodynamic from solid, 0.05 M phosphate buffer pH 6.5

compound: COCCCN1C(=O)N(c2ncc(C#Cc3ccccc3)cn2)[C@@H]2CCC[C@@H]21 [Example 9]
units symbol: µg/mL
qualifying sign: =
solubility: 153
--
compound: CN1C(=O)N(c2ccc(C#Cc3cccc(F)c3)nn2)[C@@H]2CCC[C@@H]21 (racemic) [Ref. 1 Ex. 174, reference compound]
units symbol: µg/mL
qualifying sign: <
solubility: 1
--
compound: CCN1C(=O)N(c2ncc(C#Cc3ccccc3)cn2)[C@@H]2CCC[C@@H]21 [Example 1]
units symbol: µg/mL
qualifying sign: =
solubility: 8
--
compound: COCCN1C(=O)N(c2ncc(C#Cc3cccc(F)c3)cn2)[C@@H]2CCC[C@@H]21 [Example 6]
units symbol: µg/mL
qualifying sign: =
solubility: 114
--
compound: CCN1C(=O)N(c2ncc(C#Cc3cc(F)ccc3F)cn2)[C@@H]2CCC[C@@H]21 [Example 4]
units symbol: µg/mL
qualifying sign: =
solubility: 16
--
compound: COCCCN1C(=O)N(c2ncc(C#Cc3cccc(F)c3)cn2)[C@@H]2CCC[C@@H]21 [Example 10]
units symbol: µg/mL
qualifying sign: =
solubility: 115
--
compound: CCN1C(=O)N(c2ncc(C#Cc3cccc(F)c3)cn2)[C@@H]2CCC[C@@H]21 [Example 2]
units symbol: µg/mL
qualifying sign: =
solubility: 7
--
compound: CCN1C(=O)N(c2ncc(C#Cc3ccc(F)cc3)cn2)[C@@H]2CCC[C@@H]21 [Example 3]
units symbol: µg/mL
qualifying sign: =
solubility: 4

----------
# assay notes: Lyophilisation Solubility Assay (LYSA)
# Type: physicochemical
# settings: aqueous buffer, thermodynamic from solid, 0.05 M phosphate buffer pH 6.5
measurement name: log10(solubility) (log10 of the value in µg/mL)

molecule: COCCN1C(=O)N(c2ncc(C#Cc3ccc(F)cc3)cn2)[C@@H]2CCC[C@@H]21 [Example 7]
log10(solubility): 1.63

molecule: COCCCN1C(=O)N(c2ncc(C#Cc3ccc(F)cc3)cn2)[C@@H]2CCC[C@@H]21 [Example 11]
log10(solubility): 1.75

molecule: COCCN1C(=O)N(c2ncc(C#Cc3cc(F)ccc3F)cn2)[C@@H]2CCC[C@@H]21 [Example 8]
log10(solubility): 1.88

molecule: CN1C(=O)N(c2ccc(C#Cc3ccccc3)nn2)[C@@H]2CCC[C@@H]21 [Ref. 1 Ex. 170, reference compound]
log10(solubility): 0.30

molecule: COCCN1C(=O)N(c2ncc(C#Cc3ccccc3)cn2)[C@@H]2CCC[C@@H]21 [Example 5]
log10(solubility): 2.23
